# Test system: TNF-α
# RUN_DESCRIPTION: In vitro efficacy in semi-activated LX2 cells, qPCR: TNF-α
# Type: cell-based
# MEASUREMENT_CONDITIONS: Homo sapiens, LX-2, 48 hours, Q-PCR, read-out: TNF-α mRNA inhibition rate
Where a SMILES comes first, the peptide text is derived from it.
List of inhibition at 50 µM values.
ASSAY_ENDPOINT: inhibition at 50 µM

compound="N[C@@H](CC(=O)O)C(=O)N[C@@H](Cc1ccccc1)C(=O)O [Compound 39] (H-Asp-Phe-OH)" result="1 to 10%"
compound="CC(C)(C)OC(=O)C[C@H](NC(=O)OC(C)(C)C)C(=O)O [Compound 17]" result="10 to 25%"
compound="NCC(=O)N[C@@H](CC(=O)O)C(=O)O [Compound 28] (H-Gly-Asp-OH)" result="1 to 10%"
compound="CC(C)C(=O)N[C@@H](CC(=O)O)C(=O)O [Compound 59, isobutyryl-L-aspartic acid]" result="1 to 10%"

---

# System: TNF-α
# RUN_DESCRIPTION: In vitro efficacy in semi-activated LX2 cells, qPCR: TNF-α
# Type: cell-based
# MEASUREMENT_CONDITIONS: Homo sapiens, LX-2, 48 hours, Q-PCR, read-out: TNF-α mRNA inhibition rate
Where a SMILES comes first, the peptide text is derived from it.
ASSAY_ENDPOINT: inhibition at 50 µM

compound="O=C(O)C[C@H](NC(=O)[C@@H]1CCCN1)C(=O)O [Compound 40] (H-Pro-Asp-OH)" assay_endpoint="inhibition at 50 µM" result="1 to 10%"
compound="CC(C)(C)OC(=O)C[C@H](N)C(=O)O [Compound 13]" assay_endpoint="inhibition at 50 µM" result="1 to 10%"
compound="N[C@@H](CC(=O)OC1CCCCC1)C(=O)O [Compound 23]" assay_endpoint="inhibition at 50 µM" result="1 to 10%"
compound="COC(=O)[C@@H](N)CC(=O)O [Compound 4]" assay_endpoint="inhibition at 50 µM" result="25 to 50%"
compound="COC(=O)N[C@@H](CC(=O)O)C(=O)O [Compound 61, (methoxycarbonyl)-L-aspartic acid]" assay_endpoint="inhibition at 50 µM" result="1 to 10%"

---

# RUN_DESCRIPTION: Pharmacokinetic testing in rats
# Type: in vivo, SD rats
# MEASUREMENT_CONDITIONS: male, SD, rat, plasma, Compound 6 IV 10 mg/kg, read-out: Cmax of Compound 6
ASSAY_ENDPOINT: Cmax (ng/mL)

molecule="COC(=O)C[C@H](N)C(=O)O [Compound 6]" assay_endpoint=Cmax units_symbol=ng/mL quantitative_readout=6100

---

# System: Smad3
# RUN_DESCRIPTION: In vitro efficacy in semi-activated LX2 cells, qPCR: Smad3
# Format: cell-based
# MEASUREMENT_CONDITIONS: 48 hours, Q-PCR, Table 2
Where a SMILES comes first, the peptide text is derived from it.
ASSAY_ENDPOINT: inhibition of the expression of Smad3 at the mRNA level

compound="CC(C)(C)OC(=O)N[C@@H](CC(=O)O)C(=O)O [Compound 1]" result="could inhibit"
compound="COC(=O)[C@H](CC(=O)O)NC(=O)OC(C)(C)C [Compound 26]" result="could inhibit"
compound="COC(=O)[C@@H](N)CC(=O)O [Compound 4]" result="could inhibit"
compound="N[C@@H](CC(=O)OCc1ccccc1)C(=O)O [Compound 22]" result="could inhibit"
compound="CCOC(=O)C[C@H](N)C(=O)OCC.Cl [Compound 12]" result="could inhibit"
compound="COC(=O)C[C@H](N)C(=O)O [Compound 6]" result="could inhibit"
compound="NCC(=O)N[C@@H](CC(=O)O)C(=O)O [Compound 28] (H-Gly-Asp-OH)" result="could inhibit"
compound="COC(=O)C[C@H](NC(=O)OCC1c2ccccc2-c2ccccc21)C(=O)O [Compound 9]" result="could inhibit"
compound="COC(=O)[C@@H](N)CC(=O)OC(C)(C)C [Compound 15]" result="could inhibit"
